Reference source: PubChem BioAssay

For each of the molecules below, state its composite z-score.
- Test system: Noggin (protein binding on small-molecule microarray)
- TEST_NAME: small molecules binding Noggin protein – biochemical, 635/667 nm fluorescence, primary screen (AID 1095);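 also: score merges 667 nm feature fluorescence with signal to noise over triplicate slides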
- EXPERIMENTAL_SETUP: 635 nm fluorescence, higher = more signal
Numbers only.

COCCOC(=O)N1C(=O)[C@@]2(c3ccccc31)[C@H](C(=O)NC[C@H](O)c1ccccc1)[C@H]1C(=O)O[C@H](c3ccccc3)[C@H](c3ccccc3)N1[C@@H]2c1ccc(O)cc1	0.915
CCCNC(=O)[C@@]1(C)c2ccccc2C(=O)N(c2ccc(C)cn2)[C@H]1c1ccc(CO)cc1	0.146

Item: Cc1ccc(S[C@]2(C(=O)NC(C)C)CC(=O)N(Cc3cc(C(F)(F)F)cc(C(F)(F)F)c3)[C@@H]2c2ccc(CO)cc2)cc1 | composite z-score: -1.27
